# EXPERIMENTAL_TARGET: HT-29(α2A) (Homo sapiens)
# Construct: HT-29 and chinese hamster ovary (CHO) cells expressing the human α2A (CHO—C10) receptor; endogenous in cells; host or cells: HT-29
# Sequence (P08913 whole entry): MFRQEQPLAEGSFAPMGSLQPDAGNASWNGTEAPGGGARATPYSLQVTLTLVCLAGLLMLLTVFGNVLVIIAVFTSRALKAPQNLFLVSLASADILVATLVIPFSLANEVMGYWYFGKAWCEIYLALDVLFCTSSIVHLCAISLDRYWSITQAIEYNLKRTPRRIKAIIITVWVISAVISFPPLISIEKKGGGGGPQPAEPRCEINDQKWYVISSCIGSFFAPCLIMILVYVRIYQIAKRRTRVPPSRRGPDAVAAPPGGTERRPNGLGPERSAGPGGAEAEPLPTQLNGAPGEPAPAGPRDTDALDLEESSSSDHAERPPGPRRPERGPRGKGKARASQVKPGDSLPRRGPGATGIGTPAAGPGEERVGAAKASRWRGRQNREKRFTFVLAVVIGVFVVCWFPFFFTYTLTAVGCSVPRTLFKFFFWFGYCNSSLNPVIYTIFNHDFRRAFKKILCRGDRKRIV
# EXPERIMENT_DESCRIPTION: Radioligand binding, [3H]rauwolscine, HT-29 cell membranes
# COND: values marked *: HT-29 cells, 22° C., 30 minutes
Give measured Ki for each item. Keep answers brief.

MOLECULE: C1CCC(C2C3CCC(C3)C2NC2=NCCN2)CC1 (centres unmarked)
Ki: 288 nM

MOLECULE: CC(C)C1C2CCC(C2)C1NC1=NCCO1 (centres unmarked)
Ki: 43 nM

MOLECULE: CCCCC1C2CCC(C2)C1NC1=NCCS1 (centres unmarked)
Ki: 58 nM

MOLECULE: CCCCNC1=NCCO1
Ki: 150 nM

Please find the next molecule below.
Given item CCCCC1C2CCC(C2)C1NC1=NCCO1 (centres unmarked) , the value recorded as its Ki is 29 nM
